The following substances are listed with their measured remaining at 24 h, 10 µM values.
- Experimental Details: stability in rat plasma
- Type: in vitro ADME
- Test Conditions: Hannover Wistar, pH 7.4, Conc. 10 uM, 37° C., 24 hr
- Experimental: The following study was conducted to assess the stability of the compound of Examples 2-4 (SEQ ID NOS: 9, 10 and 11) in Hannover Wistar rat and human plasma after 4 and 24 hours. Approximately, 2.0 mg of the compound of Examples 2-4 (SEQ ID NOS 9, 10 and 11) was weighed out and placed in a 4 mL amber vial. […] All samples were analyzed by LC/MS/MS. […] The percent of compound remaining at each time point as compared with the amount present in the comparison T0 sample was calculated.
Value expressed in %; do not type the unit.

Ac-MAKLKYWLLALFVYMWTDLLLFKKRPKP-NH2 [SEQ ID NO: 9]; 18.2

Now consider a different substance.
Query block: # remaining at 24 h, 10 µM lookup, item Ac-MANLAYWLLALFVYMWTDLRLFKKRPKP-NH2 [SEQ ID NO: 10]
Result block: 23.7

---

- Measured On: human eIF4E (Homo sapiens, UniProt P06730)
- Construct: made in house
- Sequence (P06730 with tags, fused parts or gaps): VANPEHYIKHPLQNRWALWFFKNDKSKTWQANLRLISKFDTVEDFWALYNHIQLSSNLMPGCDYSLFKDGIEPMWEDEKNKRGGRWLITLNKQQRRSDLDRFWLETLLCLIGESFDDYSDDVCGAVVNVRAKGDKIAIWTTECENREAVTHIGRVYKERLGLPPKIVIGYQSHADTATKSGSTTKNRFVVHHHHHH
- Experimental Details: biochemical assay of peptide binding to human eIF4E (displacement of biotin labeled 4G2 peptide)
- Test Conditions: IC50 (μM), Table 2a, cell penetrating peptides with the Y----LL-F and YWLLALFVY motifs
Quick rule for you: IC50 under 3 µM gets True, anything else gets False.

Ac-LAYWLLALFVYMWTDLRLFKKRPKP-NH2 [SEQ ID NO: 31]; False
Ac-MANLAYWLLALFVYMWTDLRLFKKRPKP-NH2 [SEQ ID NO: 10]; True
Ac-MANLAYWLLALFVYRWTDLRLFKKRPKP-NH2 [SEQ ID NO: 41]; False
Ac-YWLLALFVYMWTDLRLFKKRPKP-NH2 [SEQ ID NO: 37]; True
Ac-AYWLLALFVYMWTDLRLFKKRPKP-NH2 [SEQ ID NO: 36]; True

Query block: State whether 3 µM exceeds IC50 recorded for Ac-LAYWLLALFVYMWTDLRLAKKRPKP-NH2 [SEQ ID NO: 33] .
Result block: False

Query block: Report whether reported IC50 is lower than 3 µM (strictly) for Ac-NLAYWLLALFVYMWTDLRLFKKRPKP-NH2 [SEQ ID NO: 35]
Result block: False

---

- Experimental Details: stability in human plasma
- Type: in vitro ADME
- Test Conditions: pH 7.4, Conc. 10 uM, 37° C., 4 hr
Reported Endpoint: remaining at 4 h, 10 µM (%)
API: value field is a number in %; no unit string.

Ac-MAKLKYWLLALFVYMWTDLLLFKKRPKP-NH2 [SEQ ID NO: 9]; 94.9

For the next question, use this substance.
Query block: GET /values?readout=remaining at 4 h, 10 µM&item= Ac-MANLAYWLLALFVYMWTDLRLFKKRPKP-NH2 [SEQ ID NO: 10]
Result block: 99.1

---

- Measured On: human eIF4E (Homo sapiens, UniProt P06730)
- Construct: made in house
- Experimental Details: biochemical assay of peptide binding to human eIF4E (displacement of biotin labeled 4G2 peptide)
- Test Conditions: Table 2, cell-penetrating peptides with the Y----LL-F motif; read-out: IC50
Reported Endpoint: pIC50
The quantity pIC50 is defined as the negative base-10 logarithm of the molar concentration.

Query block: Need pIC50, item Ac-GAAEAAAYVYDLLLRFLRQRRRLRRERVRA-NH2 [SEQ ID NO: 25]
Result block: 4.96

---

- Experimental Details: stability in rat plasma
- Type: in vitro ADME
- Test Conditions: Hannover Wistar, pH 7.4, Conc. 10 uM, 37° C., 4 hr
Reported Endpoint: remaining at 4 h, 10 µM (%)
Form entry: value (%) — number only.

Query block: Quick check: remaining at 4 h, 10 µM of Ac-MAKLKYWLLALFVYMWTDLLLFKKRPKP-NH2 [SEQ ID NO: 9] ?
Result block: 91.7

Query block: For the substance Ac-MANLAYWLLALFVYMWTDLRLFKKRPKP-NH2 [SEQ ID NO: 10] , what remaining at 4 h, 10 µM is on record?
Result block: 102

---

Collected IC50 values appear next to each entry.
- Measured On: human eIF4E (Homo sapiens, UniProt P06730)
- Construct: made in house
- Experimental Details: biochemical assay of peptide binding to human eIF4E (displacement of biotin labeled 4G2 peptide)
- Test Conditions: IC50 (μM), Table 2, cell-penetrating peptides with the Y----LL-F motif
The response must be a number in µM with no trailing unit.

Ac-MVKSKYGSWILLLFVAMWSDVGLCKKRPKP-NH2 [SEQ ID NO: 13]; 6.89
Ac-MYKSKILLWFLVLFVAMWSDVALAKKRPKP-NH2 [SEQ ID NO: 19]; 7.21
Ac-MVKSKIYSWILLLFFAMWSDVKLKKKRPKP-NH2 [SEQ ID NO: 21]; 6.85
Ac-MVKYKIGSLLLFLFVAMWSDVGLCKKRPKP-NH2 [SEQ ID NO: 12]; 4.13
Ac-MYKSKILLWFLVLFVAMWSDVGLCKKRPKP-NH2 [SEQ ID NO: 14]; 3.62
Ac-MVKYKIASLLLFLFVAMWSDVALAKKRPKP-NH2 [SEQ ID NO: 17]; 12.5

Query block: I am curious: what IC50 value has been reported for Ac-MANLGYWLLALFVYMWTDLLLFKKRPKP-NH2 [SEQ ID NO: 16] ?
Result block: 3.03

Query block: So what's the measured IC50 for this one? Ac-MVKSKIYSWILLLFFAMWSDVGLCKKRPKP-NH2 [SEQ ID NO: 15]
Result block: 5.2

Query block: Query: IC50; subject: Ac-MVKSKIYSWILLLFFAMWSDVALAKKRPKP-NH2 [SEQ ID NO: 20]
Result block: 9.96

Query block: State the recorded IC50 for this entry: Ac-MVKYKIASLLLFLFVAMWSDVKLKKKRPKP-NH2 [SEQ ID NO: 18]
Result block: 6.71

---

- Measured On: human eIF4E (Homo sapiens)
- Construct: made in house
- Experimental Details: biochemical assay of peptide binding to human eIF4E (displacement of biotin labeled 4G2 peptide)
- Test Conditions: IC50 (μM), Table 3, cell-penetrating peptides without the Y----LL-F motif
Reported Endpoint: IC50 (µM)
// return numeric value only (unit: µM, not printed)

Ac-LAYWLLALFVAMWTDLRLFKKRPKP-NH2 [SEQ ID NO: 49]; 1.99
Ac-LLALFVYMWTDLRLFKKRPKP-NH2 [SEQ ID NO: 51]; 3.75

Now, please, on to the next substance.
Query block: Suppose we examine the substance Ac-WLLALFVYMWTDLRLFKKRPKP-NH2 [SEQ ID NO: 50] ; what IC50 value has been reported?
Result block: 2.36

---

- Measured On: human eIF4E (Homo sapiens, UniProt P06730)
- Construct: made in house
- Experimental Details: biochemical assay of peptide binding to human eIF4E (displacement of biotin labeled 4G2 peptide)
- Test Conditions: Table 1, peptides which bind eIF4E but are not cell-penetrating; read-out: IC50
Reported Endpoint: IC50 (µM)
The response must be a number in µM with no trailing unit.

Query block: Tell me the measured IC50 of Ac-KQYDREFLLDFQFMPA-NH2 [SEQ ID NO: 52] , please.
Result block: 10.5

---

Overview of recorded IC50 for various substances
- Measured On: human eIF4E (Homo sapiens, UniProt P06730)
- Construct: made in house
- Experimental Details: biochemical assay of peptide binding to human eIF4E (displacement of biotin labeled 4G2 peptide)
- Test Conditions: IC50 (μM), Table 2a, cell penetrating peptides with the Y----LL-F and YWLLALFVY motifs
Give the number; µM is assumed, so skip it.

Ac-MANLAYWLLALFVYLWTDLRLFKKRPKP-NH2 [SEQ ID NO: 38]; 3.04
Ac-ANLAYWLLALFVYMWTDLRLFKKRPKP-NH2 [SEQ ID NO: 34]; 2.22
Ac-MANLAYWLLALFVYMFTDLRLFKKRPKP-NH2 [SEQ ID NO: 42]; 3.91

Please look at the following substance next.
Query block: // query IC50 value for entry Ac-MAALAYWLLALFVYMWTDLLLFKKRPKP-NH2 [SEQ ID NO: 27]
Result block: 10.7
